system: test plant species; experiment: Post-emergent herbicidal activity test (greenhouse, foliar spray, visual growth reduction); format: in vivo; conditions: post-emergence, 336 h, SETFA: giant foxtail (Setaria faberi), 140 g ai/ha, 14 days after application, read-out: Visual Growth Reduction (%) 14 Days After Application, SETFA
Observation type: pest or weed control at 140 g/ha

Here's what some known entries look like.
| Compound | pest or weed control at 140 g/ha |
| --- | --- |
| COC(=O)c1nc(-c2cccc(OC(F)(F)F)c2F)ccc1Cl | 0 to 29% |
| O=C(O)c1nc(-c2cc3c(cc2Cl)OC(F)(F)O3)c(F)cc1Cl | 85 to 94% |
| CCCCOc1c(Cl)ccc(-c2ccc(Cl)c(C(=O)OC)n2)c1F | 0 to 29% |
| COC(=O)c1nc(-c2cc3c(cc2Cl)OC(F)(F)O3)ccc1Cl | 30 to 44% |
| COC(=O)c1nc(-c2ccc(C(F)(F)F)nc2)c(F)cc1Cl | 0 to 29% |
| COC(=O)c1nc(-c2ccc3ccsc3c2F)ccc1Cl | 0 to 29% |

Prompt: Returns the measured pest or weed control at 140 g/ha for the input compound. Input: COC(=O)c1nc(-c2ccc([S+](C)[O-])cc2)c(F)cc1Cl (stereo not shown)
Response: 0 to 29%

Prompt: Bench note: what pest or weed control at 140 g/ha did O=C(O)c1nc(-c2ccc(C(F)(F)F)cc2Cl)c(F)cc1Cl show?
Response: 95 to 100%

Prompt: For COC(=O)c1nc(-c2cc(C)c(C(F)(F)F)cc2F)ccc1Cl , what is its reported pest or weed control at 140 g/ha?
Response: 0 to 29%

Prompt: For the compound shown here, COC(=O)c1nc(-c2cc(Cl)cnc2OC)ccc1Cl , give the reported pest or weed control at 140 g/ha.
Response: 0 to 29%
